# Test system: primary human mesenchymal stem cells (hMSCs)
# Assay Method Text: Chondrogenesis screening using primary human mesenchymal stem cells
# Format: cell-based
# Condition Parameters: Homo sapiens, Mesenchymal stem cells, hMSC chondrogenesis; concentration required to induce 50% levels of chondrogenesis with TGF-β3 as positive control; read-out: Conc (nM) of 50% TGF-β3 activity
Parameter Measured: EC50 (nM)

Example entries and their recorded answers appear below.
>>> recorded_result("CCCCC(=O)Nc1cncc(-c2ccc3[nH]nc(-c4cc5c(N6CCCCC6)nccc5[nH]4)c3n2)c1")
30
>>> recorded_result("FC1(F)CCN(Cc2cncc(-c3ccc4[nH]nc(-c5cc6c(N7CCCCC7)cccc6[nH]5)c4c3)c2)C1")
30
>>> recorded_result("Cc1n[nH]c2ccc(-c3cncc(OC[C@H](N)Cc4ccccc4)n3)cc12")
30

P: CC(C)(C)C(=O)Nc1cncc(-c2ccc3[nH]nc(-c4nc5c(-c6ccc(Cl)s6)cncc5[nH]4)c3n2)c1
Q: c1cncc(-c2cc3c(-c4nc5ccccc5[nH]4)n[nH]c3cn2)c1
R: c1cncc(-c2cc3c(-c4nc5c(-c6cccnc6)cccc5[nH]4)n[nH]c3cn2)c1
S: O=C1CCc2cccc(c2)-c2cncc3[nH]c(nc23)-c2n[nH]c3ccc(cc23)-c2cncc(c2)N1
T: COc1cncc(-c2ccc3[nH]nc(-c4nc5c(-c6cccc(F)c6)cncc5[nH]4)c3n2)c1
[in] Rank the 5 molecules: largest EC50 first, smallest last. Respond with an ordered listing of the labels, as requested.
[out] R, S, Q, T, P

I: CN(C)Cc1cncc(-c2cnc3[nH]nc(-c4nc5c(-c6cc(F)cc(N7CCOCC7)c6)cncc5[nH]4)c3c2)c1
II: CS(=O)(=O)NCc1cc(F)cc(-c2cncc3[nH]c(-c4n[nH]c5ccc(-c6cncnc6)nc45)cc23)c1
[in] # returns the entry with the larger EC50; inputs I and II Selection: enter the item's label.
[out] I
